meta.source: paper PMC9841523

Tested on: 4EBP1 T37/T46 phosphorylation (mTORC1)
Experiment: AlphaLISA/MSD analysis of 4EBP1 phosphorylation in MDA-MB-468 cells
Format: cell-based
Conditions: Homo sapiens; MDA-MB-468 cells; read-out: p4EBP1 IC50
MEASURED_PROPERTY: IC50 (nM)

molecule=CO[C@H]1C[C@@H]2CC[C@@H](C)[C@@](O)(O2)C(=O)C(=O)N2CCCC[C@H]2C(=O)O[C@H]([C@H](C)C[C@@H]2CC[C@@H](OCCCCc3cn(CCOCCOCCOCCOCCOCCOCCOCCOCCC(=O)NCCCCn4nc(-c5cc6cc(O)ccc6[nH]5)c5c(N)ncnc54)nn3)[C@H](OC)C2)CC(=O)[C@H](C)/C=C(\C)[C@@H](O)[C@@H](OC)C(=O)[C@H](C)C[C@H](C)/C=C/C=C/C=C/1C measured_property=IC50 limit_operator== measured_number=1.4
molecule=CO[C@H]1C[C@@H]2CC[C@@H](C)[C@@](O)(O2)C(=O)C(=O)N2CCCC[C@H]2C(=O)O[C@H]([C@H](C)C[C@@H]2CC[C@@H](OCCCCc3cn(CCOCCOCCOCCOCCOCCOCCOCCOCCC(=O)NCCCCn4nc(-c5cnc6[nH]ccc6c5)c5c(N)ncnc54)nn3)[C@H](OC)C2)CC(=O)[C@H](C)/C=C(\C)[C@@H](O)[C@@H](OC)C(=O)[C@H](C)C[C@H](C)/C=C/C=C/C=C/1C measured_property=IC50 limit_operator== measured_number=1
molecule="CO[C@H]1C[C@@H]2CC[C@@H](C)[C@@](O)(O2)C(=O)C(=O)N2CCCC[C@H]2C(=O)O[C@H]([C@H](C)C[C@@H]2CC[C@@H](OCCO)[C@H](OC)C2)CC(=O)[C@H](C)/C=C(\\C)[C@@H](O)[C@@H](OC)C(=O)[C@H](C)C[C@H](C)/C=C/C=C/C=C/1C [compound 4, everolimus, reference compound]" measured_property=IC50 limit_operator=> measured_number=1000

---

pIC50: recorded values
System: AKT S473 phosphorylation (mTORC2)
Experiment: AlphaLISA/MSD analysis of AKT phosphorylation in MDA-MB-468 cells
Assay type: cell-based
Conditions: Homo sapiens, MDA-MB-468, read-out: pAKT IC50
pIC50: −log10 of the molar value.
MEASURED_PROPERTY: pIC50

compound=CO[C@H]1C[C@@H]2CC[C@@H](C)[C@@](O)(O2)C(=O)C(=O)N2CCCC[C@H]2C(=O)O[C@H]([C@H](C)C[C@@H]2CC[C@@H](OC(=O)NCCOCCOCCOCCOCCOCCOCCOCCOCCC(=O)N3CCc4cc(Cn5nc(-c6ccc7oc(N)nc7c6)c6c(N)ncnc65)ccc4C3)[C@H](OC)C2)C[C@@H](O)[C@H](C)/C=C(\C)[C@@H](O)[C@@H](OC)C(=O)[C@H](C)C[C@H](C)/C=C/C=C/C=C/1C measured_property=pIC50 measured_number=7.72
compound="Nc1ncnc2c1c(-c1cnc3[nH]ccc3c1)nn2C1CCCC1 [compound 8, PP121, reference compound]" measured_property=pIC50 measured_number=7.00

---

Assay: Mouse pharmacokinetics, IP administration
Assay type: in vivo
Conditions: mouse, in vivo; male Balb/c mice, 1 mg/kg IP, mean ± SD, n = 3
MEASURED_PROPERTY: half-life (h)

molecule="CO[C@H]1C[C@@H]2CC[C@@H](C)[C@@](O)(O2)C(=O)C(=O)N2CCCC[C@H]2C(=O)O[C@H]([C@H](C)C[C@@H]2CC[C@@H](OC(=O)NCCOCCOCCOCCOCCOCCOCCOCCOCCC(=O)N3CCc4cc(Cn5nc(-c6ccc7oc(N)nc7c6)c6c(N)ncnc65)ccc4C3)[C@H](OC)C2)C[C@@H](O)[C@H](C)/C=C(\\C)[C@@H](O)[C@@H](OC)C(=O)[C@H](C)C[C@H](C)/C=C/C=C/C=C/1C [compound 38]" measured_number=4.8

---

Experiment: Mouse pharmacokinetics, IP administration
Format: in vivo
Conditions: mouse, in vivo; male Balb/c mice, 1 mg/kg IP, mean ± SD, n = 3
MEASURED_PROPERTY: AUC(0-t) (µM·h)

molecule=CO[C@H]1C[C@@H]2CC[C@@H](C)[C@@](O)(O2)C(=O)C(=O)N2CCCC[C@H]2C(=O)O[C@H]([C@H](C)C[C@@H]2CC[C@@H](OC(=O)NCCOCCOCCOCCOCCOCCOCCOCCOCCC(=O)N3CCc4cc(Cn5nc(-c6ccc7oc(N)nc7c6)c6c(N)ncnc65)ccc4C3)[C@H](OC)C2)C[C@@H](O)[C@H](C)/C=C(\C)[C@@H](O)[C@@H](OC)C(=O)[C@H](C)C[C@H](C)/C=C/C=C/C=C/1C measured_number=25.9

---

pIC50: recorded values
System: 4EBP1 T37/T46 phosphorylation (mTORC1)
Test: AlphaLISA/MSD analysis of 4EBP1 phosphorylation in MDA-MB-468 cells
Type: cell-based
Details: Homo sapiens; MDA-MB-468 cells; read-out: p4EBP1 IC50
Experimental: Cell culture and reagents. Cells were obtained from ATCC, grown in appropriate medium supplemented with 10% fetal bovine serum and 1% penicillin/streptomycin and maintained at 37 °C in a humidified incubator at 5% CO 2. […]
pIC50: −log10 of the molar value.
MEASURED_PROPERTY: pIC50

compound="CO[C@H]1C[C@@H]2CC[C@@H](C)[C@@](O)(O2)C(=O)C(=O)N2CCCC[C@H]2C(=O)O[C@H]([C@H](C)C[C@@H]2CC[C@@H](OC(=O)NCCOCCOCCOCCOCCOCCOCCOCCOCCC(=O)NCCS(=O)(=O)c3ccc(C(=O)N4CCOc5ccc(-c6ccc(N)nc6)cc5C4)c(C)c3F)[C@H](OC)C2)CC(=O)[C@H](C)/C=C(\\C)[C@@H](O)[C@@H](OC)C(=O)[C@H](C)C[C@H](C)/C=C/C=C/C=C/1C [compound 31]" tested_system="4EBP1 T37/T46 phosphorylation (mTORC1)" limit_operator== measured_number=9.15
compound="CO[C@H]1C[C@@H]2CC[C@@H](C)[C@@](O)(O2)C(=O)C(=O)N2CCCC[C@H]2C(=O)O[C@H]([C@H](C)C[C@@H]2CC[C@@H](OCCOCc3cn(CCOCCOCCOCCOCCOCCOCCOCCOCCC(=O)NCCCCn4nc(-c5cc6cc(O)ccc6[nH]5)c5c(N)ncnc54)nn3)[C@H](OC)C2)CC(=O)[C@H](C)/C=C(\\C)[C@@H](O)[C@@H](OC)C(=O)[C@H](C)C[C@H](C)/C=C/C=C/C=C/1C [compound 17, reference compound]" tested_system="4EBP1 T37/T46 phosphorylation (mTORC1)" limit_operator== measured_number=8.60
compound="CO[C@H]1C[C@@H]2CC[C@@H](C)[C@@](O)(O2)C(=O)C(=O)N2CCCC[C@H]2C(=O)O[C@H]([C@H](C)C[C@@H]2CC[C@@H](O)[C@H](OC)C2)C[C@@H](OC)[C@H](C)/C=C(\\C)[C@@H](O)[C@@H](OC)C(=O)[C@H](C)C[C@H](C)/C=C/C=C/C=C/1C [compound 12, C32-methoxy rapamycin]" tested_system="4EBP1 T37/T46 phosphorylation (mTORC1)" limit_operator=< measured_number=6.00

---

Experiment: Mouse pharmacokinetics, IP administration
Assay type: in vivo
Conditions: mouse, in vivo; male Balb/c mice, 1 mg/kg IP, mean ± SD, n = 3; read-out: Tmax
Protocol: Mouse Pharmacokinetic Studies. Male Balb/C mice were non-fasted on the day of dosing. PK […] plasma were conducted using an AB Sciex Triple Quad 6500+ mass spectrometer coupled with a Waters UPLC system. Supernatants were collected by centrifugation after protein precipitation using MeCN containing internal standard (IS, D4-AEA). Supernatant was injected for LC- […] μm) column. The LC mobile phase (A: 5 mM NH 4OAc in H 2O; B: MeCN/MeOH 50/50)
MEASURED_PROPERTY: Tmax

molecule=CO[C@H]1C[C@@H]2CC[C@@H](C)[C@@](O)(O2)C(=O)C(=O)N2CCCC[C@H]2C(=O)O[C@H]([C@H](C)C[C@@H]2CC[C@@H](OC(=O)NCCOCCOCCOCCOCCOCCOCCOCCOCCC(=O)N3CCc4cc(Cn5nc(-c6ccc7oc(N)nc7c6)c6c(N)ncnc65)ccc4C3)[C@H](OC)C2)C[C@@H](O)[C@H](C)/C=C(\C)[C@@H](O)[C@@H](OC)C(=O)[C@H](C)C[C@H](C)/C=C/C=C/C=C/1C result="2 h"
